Reference source: patent US20220017589A1

Target: T1, human GFRAL (human, UniProt Q6UXV0 19-394)
T1 sequence (looked up): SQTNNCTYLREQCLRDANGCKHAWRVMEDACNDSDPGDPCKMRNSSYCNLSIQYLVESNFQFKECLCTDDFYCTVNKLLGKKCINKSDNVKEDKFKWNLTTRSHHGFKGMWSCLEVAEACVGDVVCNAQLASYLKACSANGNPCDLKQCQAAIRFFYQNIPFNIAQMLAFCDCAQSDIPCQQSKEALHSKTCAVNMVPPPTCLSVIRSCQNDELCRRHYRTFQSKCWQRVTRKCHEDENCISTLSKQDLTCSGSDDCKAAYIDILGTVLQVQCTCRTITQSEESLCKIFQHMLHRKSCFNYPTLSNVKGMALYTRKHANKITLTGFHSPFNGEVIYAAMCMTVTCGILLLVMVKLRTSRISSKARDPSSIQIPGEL
Assay: cell-based or functional assay
A collection of binders and their measured GDF15 activity (EC50, pM)
Report as a plain number; the unit pM is understood.

What value of GDF15 activity (EC50, pM) has been recorded for this entry: MLC045 (ligand, Moiety A (HOOC-(CH2)16-CO-gGlu-2XADO) on 1K and 55K of Linker (32K and 86K of fusion polypeptide)) HGEGTFTSDVSSYLEEQAAREFIAWLVRGGGKQEPGAQPGQEPGAQPGQEPGAQPGQEPGAQPGQEPGAQPGQEPGAQPGAQPGAKPGAQPGAQPGAQPGAQPGAQPGAQPARQGDHCPLGPGRCCRLHTVRASLEDLGWADWVLSPREVQVTMCIGACPSQFRAANLHAQIKTSLHRLRPDTVPAPCCVPASYNPMVLIQRTDTGVSLQTYDDLLARDCHCI
114

What value of GDF15 activity (EC50, pM) has been recorded for this entry: MLC089 (ligand, Moiety B (HOOC-(CH2)16-CO-gGlu-2XADO-EDA-CO-CH2) on 39C of Linker (70C of fusion polypeptide)) HGEGTFTSDVSSYLEEQAAKEFIAWLVRGGGGAQPGAQPGAQPGAQPGAQPGAQPGAQPGAQPGQEPGQCPGQEPGAQPGQEPGAQPGQEPGAQPGQEPGAQPGQEPGAQPARQGDHCPLGPGRCCRLHTVRASLEDLGWADWVLSPREVQVTMCIGACPSQFRAANLHAQIKTSLHRLKPDTVPAPCCVPASYNPMVLIQKTDTGVSLQTYDDLLAKDCHCI
42.9

Lab note: next binder to report on.
What value of GDF15 activity (EC50, pM) has been recorded for this entry: MLC093 (ligand, Moiety B (HOOC-(CH2)16-CO-gGlu-2XADO-EDA-CO-CH2) on 33C of Linker (64C of fusion polypeptide)) HGEGTFTSDVSSYLEEQAAKEFIAWLVRGGGGAQPGAQPGAQPGAQPGAQPGAQPGAQPGAQPCQEPGAQPGQEPGAQPGQEPGAQPGQEPGAQPGQEPGAQPGQEPGAQPARQGDHCPLGPGRCCRLHTVRASLEDLGWADWVLSPREVQVTMCIGACPSQFRAANLHAQIKTSLHRLKPDTVPAPCCVPASYNPMVLIQKTDTGVSLQTYDDLLAKDCHCI
54.8
